# TGT: Indoleamine 2,3-dioxygenase (Homo sapiens, UniProt P14902)
# Construct: endogenous in cells
# Sequence (P14902 whole entry): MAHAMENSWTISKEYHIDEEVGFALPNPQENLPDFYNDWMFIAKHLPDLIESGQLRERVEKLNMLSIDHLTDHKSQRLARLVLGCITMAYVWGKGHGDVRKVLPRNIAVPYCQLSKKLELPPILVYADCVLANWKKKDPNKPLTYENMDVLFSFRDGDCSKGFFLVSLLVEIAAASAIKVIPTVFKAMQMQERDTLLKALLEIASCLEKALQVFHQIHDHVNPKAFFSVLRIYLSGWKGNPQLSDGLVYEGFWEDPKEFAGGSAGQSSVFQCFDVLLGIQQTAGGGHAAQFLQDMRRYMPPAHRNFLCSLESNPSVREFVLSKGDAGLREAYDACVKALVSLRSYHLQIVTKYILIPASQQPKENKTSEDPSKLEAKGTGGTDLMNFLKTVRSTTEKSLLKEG
# TEST NAME: SKOV-3 Cellular Indoleamine 2,3-dioxygenase Assay
# MEASUREMENT CONTEXT: SKOV-3 cells, 50 ng/ml Interferon gamma, 100 μM L-Tryptophan, 24 hours, N-Formylkynurenin fluorescence detection; read-out: cell based activity (IC50)
For each entry below, report its IC50 value.

C[C@H](C(=O)Nc1ccc(Cl)cc1)[C@H]1CC[C@]2(CC1)COc1cc(C(F)F)ccc12	< 50 nM
O=C(C[C@H]1CC[C@@]2(CCc3ccccc32)CC1)Nc1ccc(Cl)cc1 (single isomer, unassigned) [Example 1b]	≥ 50 nM
CC(C(=O)Nc1ccc(Cl)cc1)C1CCC2(CC1)COc1nc(C(F)(F)F)ccc12 (single isomer, unassigned) [Example 5e]	< 50 nM
CC(C(=O)Nc1ccc(Cl)cc1F)C1CCC2(CC1)COc1cc(C(F)(F)F)ccc12 (single isomer, unassigned) [Example 7e]	≥ 50 nM
CC(C(=O)NC1Cc2ccc(F)cc21)C1CCC2(CC1)COc1cc(C(F)(F)F)ccc12 (single isomer, unassigned) [Example 12a]	≥ 50 nM

Hi! Can you tell me IC50 for each of these molecules?
1. CC(C(=O)Nc1ccc(Cl)cc1)C1CCC2(CC1)c1ccc(C(F)(F)F)cc1C(=O)N2C (single isomer, unassigned) [Example 6e]
2. CC(C(=O)Nc1ccc(Cl)cc1)C1CCC2(CC1)COc1nc(C(F)(F)F)ccc12 (single isomer, unassigned) [Example 5d]
3. CC(C(=O)Nc1ccc(Cl)cc1)C1CCC2(CC1)c1ccc(C(F)(F)F)cc1C(=O)N2C (single isomer, unassigned) [Example 6d]
4. Cc1ccc(NC(=O)C(C)C2CCC3(CC2)COc2cc(C(F)(F)F)ccc23)cc1 (single isomer, unassigned) [Example 8e]
5. CC(C(=O)Nc1ccc(Cl)cc1)C1CCC2(CC1)COc1nc(C(F)(F)F)ccc12 (single isomer, unassigned) [Example 5b]

RESULT:
1: ≥ 50 nM; 2: ≥ 50 nM; 3: ≥ 50 nM; 4: ≥ 50 nM; 5: < 50 nM

Hi! Can you tell me IC50 for each of these molecules?
1. O=C(C[C@H]1CC[C@@]2(CC1)COc1cc(C(F)(F)F)ccc12)Nc1ccc(Cl)cc1F (single isomer, unassigned) [Example 14a]
2. CC(C(=O)Nc1ccc(Cl)cc1)C1CCC2(CC1)c1ccc(C(F)(F)F)cc1C(=O)N2C (single isomer, unassigned) [Example 6c]
3. C[C@@H](C(=O)Nc1ccc(Cl)cc1)[C@H]1CC[C@@]2(CC1)COc1cc(C(F)(F)F)ccc12

RESULT:
1: < 50 nM; 2: < 50 nM; 3: < 50 nM

---

For each entry below, report its IC50 value.
# TGT: Indoleamine 2,3-dioxygenase (Homo sapiens, UniProt P14902)
# Construct: endogenous in cells
# TEST NAME: SKOV-3 Cellular Indoleamine 2,3-dioxygenase Assay
# MEASUREMENT CONTEXT: SKOV-3 cells, 50 ng/ml Interferon gamma, 100 μM L-Tryptophan, 24 hours, N-Formylkynurenin fluorescence detection; read-out: cell based activity (IC50)

Example cases with answers are listed next.
CCC(C(=O)Nc1ccc(Cl)cn1)C1CCC2(CC1)COc1cc(C(F)(F)F)ccc12 (single isomer, unassigned) [Example 10d]	< 50 nM
Cc1ccc(NC(=O)C(C)C2CCC3(CC2)COc2cc(C(F)(F)F)ccc23)cc1 (single isomer, unassigned) [Example 8b]	< 50 nM
CC(C(=O)Nc1ccc(Cl)cc1F)C1CCC2(CC1)COc1cc(C(F)(F)F)ccc12 (single isomer, unassigned) [Example 7c]	< 50 nM
O=C(C[C@H]1CC[C@@]2(CC1)COc1cc(C(F)(F)F)ccc12)Nc1ccc(Cl)cc1F (single isomer, unassigned) [Example 14b]	≥ 50 nM
CCC(C(=O)Nc1ccc(Cl)cn1)C1CCC2(CC1)COc1cc(C(F)(F)F)ccc12 (single isomer, unassigned) [Example 10e]	≥ 50 nM

# input for lookup
QUERY: Name the recorded IC50 of the compound listed here: CC(C(=O)Nc1ccc(Cl)cc1)C1CCC2(CC1)COc1ncc(C(F)(F)F)cc12 (single isomer, unassigned) [Example 4b]
RESULT: ≥ 50 nM

---

For each entry below, report its IC50 value.
# TGT: Indoleamine 2,3-dioxygenase (Homo sapiens)
# Construct: endogenous in cells
# TEST NAME: SKOV-3 Cellular Indoleamine 2,3-dioxygenase Assay
# MEASUREMENT CONTEXT: SKOV-3 cells, 50 ng/ml Interferon gamma, 100 μM L-Tryptophan, 24 hours, N-Formylkynurenin fluorescence detection; read-out: cell based activity (IC50)

Example cases with answers are listed next.
CC(C(=O)Nc1ccc(Cl)cc1)[C@H]1CC[C@@]2(CCc3ccccc32)CC1 (single isomer, unassigned) [Example 2b]	< 50 nM
CCC(C(=O)Nc1ccc(Cl)cn1)C1CCC2(CC1)COc1cc(C(F)(F)F)ccc12 (single isomer, unassigned) [Example 10b]	< 50 nM
CC(c1nc2cc(Cl)ccc2[nH]1)C1CCC2(CC1)COc1cc(C(F)(F)F)ccc12 (single isomer, unassigned) [Example 11b]	≥ 50 nM
CC(C(=O)Nc1ccc(Cl)cc1F)C1CCC2(CC1)COc1cc(C(F)(F)F)ccc12 (single isomer, unassigned) [Example 7b]	< 50 nM
CC1CCC(NC(=O)C(C)C2CCC3(CC2)COc2cc(C(F)(F)F)ccc23)CC1 (single isomer, unassigned) [Example 9b]	≥ 50 nM

# input for lookup
QUERY: Name the recorded IC50 of the molecule listed here: C[C@H](C(=O)Nc1ccc(Cl)cc1)[C@H]1CC[C@]2(CC1)COc1cc(C(F)(F)F)ccc12
RESULT: < 50 nM

---

# TGT: Indoleamine 2,3-dioxygenase (Homo sapiens)
# Construct: endogenous in cells
# TEST NAME: SKOV-3 Cellular Indoleamine 2,3-dioxygenase Assay
# MEASUREMENT CONTEXT: SKOV-3 cells, 50 ng/ml Interferon gamma, 100 μM L-Tryptophan, 24 hours, N-Formylkynurenin fluorescence detection; read-out: cell based activity (IC50)
pIC50: −log10 of the molar value.
For each entry below, report its pIC50 value.

Hi! Can you tell me pIC50 for each of these molecules?
1. CC(C(=O)Nc1ccc(Cl)cc1)C1CCC2(CC1)COc1ncc(C(F)(F)F)cc12 (single isomer, unassigned) [Example 4c]
2. CC1CCC(NC(=O)C(C)C2CCC3(CC2)COc2cc(C(F)(F)F)ccc23)CC1 (single isomer, unassigned) [Example 9c]
3. CCC(C(=O)Nc1ccc(Cl)cn1)C1CCC2(CC1)COc1cc(C(F)(F)F)ccc12 (single isomer, unassigned) [Example 10c]
4. O=C(C[C@H]1CC[C@@]2(CCc3ccccc32)CC1)Nc1ccc(Cl)cc1 (single isomer, unassigned) [Example 1c]
5. C[C@@H](C(=O)Nc1ccc(Cl)cc1)[C@H]1CC[C@]2(CC1)COc1cc(C(F)(F)F)ccc12

RESULT:
1: ≤ 7.30; 2: ≤ 7.30; 3: > 7.30; 4: > 7.30; 5: ≤ 7.30

---

# TGT: Indoleamine 2,3-dioxygenase (Homo sapiens, UniProt P14902)
# Construct: endogenous in cells
# TEST NAME: SKOV-3 Cellular Indoleamine 2,3-dioxygenase Assay
# MEASUREMENT CONTEXT: SKOV-3 cells, 50 ng/ml Interferon gamma, 100 μM L-Tryptophan, 24 hours, N-Formylkynurenin fluorescence detection; read-out: cell based activity (IC50)
MEASURED PROPERTY: IC50

CC(C(=O)Nc1ccc(Cl)cc1)C1CCC2(CC1)c1ccc(C(F)(F)F)cc1C(=O)N2C (single isomer, unassigned) [Example 6b]	≥ 0.05 µM
CC(C(=O)Nc1ccc(Cl)cc1)C1CCC2(CC1)COc1ncc(C(F)(F)F)cc12 (single isomer, unassigned) [Example 4d]	≥ 0.05 µM

QUERY: Name the recorded IC50 of the compound listed here: Cc1ccc(NC(=O)C(C)C2CCC3(CC2)COc2cc(C(F)(F)F)ccc23)cc1 (single isomer, unassigned) [Example 8c]
RESULT: < 0.05 µM

---

# TGT: Indoleamine 2,3-dioxygenase (Homo sapiens, UniProt P14902)
# Construct: endogenous in cells
# TEST NAME: SKOV-3 Cellular Indoleamine 2,3-dioxygenase Assay
# MEASUREMENT CONTEXT: SKOV-3 cells, 50 ng/ml Interferon gamma, 100 μM L-Tryptophan, 24 hours, N-Formylkynurenin fluorescence detection; read-out: cell based activity (IC50)
For each entry below, report its IC50 value.

Example cases with answers are listed next.
C[C@H](C(=O)Nc1ccc(Cl)cc1)[C@H]1CC[C@@]2(CC1)COc1cc(C(F)(F)F)ccc12	< 50 nM
CC(c1nc2cc(Cl)ccc2[nH]1)C1CCC2(CC1)COc1cc(C(F)(F)F)ccc12 (single isomer, unassigned) [Example 11c]	< 50 nM
CC(C(=O)Nc1ccc(Cl)cc1F)C1CCC2(CC1)COc1cc(C(F)(F)F)ccc12 (single isomer, unassigned) [Example 7d]	< 50 nM
CC(c1nc2cc(Cl)ccc2[nH]1)C1CCC2(CC1)COc1cc(C(F)(F)F)ccc12 (single isomer, unassigned) [Example 11e]	< 50 nM
CC(C(=O)NC1Cc2ccc(F)cc21)C1CCC2(CC1)COc1cc(C(F)(F)F)ccc12 (single isomer, unassigned) [Example 12b]	≥ 50 nM

# input for lookup
QUERY: Name the recorded IC50 of the compound listed here: CC1CCC(NC(=O)C(C)C2CCC3(CC2)COc2cc(C(F)(F)F)ccc23)CC1 (single isomer, unassigned) [Example 9e]
RESULT: < 50 nM
